The values you see were collected from PubChem BioAssay (NCATS).

Assay: qHTS of pediatric cancer cell lines to identify multiple opportunities for drug repurposing: Confirmatory screen for Saos-2 cells (AID 1347127); further: nearly all actives have a fitted effect of over 60% in size
Details: Saos-2 osteosarcoma cell viability; series mostly up to 45.9 µM
Results filed as inconclusive are left out. Calls of active or inactive are those of the source. The call rests on the fitted dose curve; in most records, active means well fitted cell-killing curve with a large enough effect; inconclusive means small, poorly fitted or top-dose-only effect, or effect the other way; inactive means no such curve, though single readings can be large or run the other way.
Outcomes: 1.0 for active, 0.0 for inactive

compound: COc1cccc2c1C(=O)c1c(O)c3c(c(O)c1C2=O)C[C@@](O)(C(=O)CO)C[C@@H]3O[C@H]1C[C@H](N)[C@@H](O)[C@H](C)O1
discrete-label: 1.0
//
compound: O=C1c2c(O)cccc2[C@@H]([C@@H]2O[C@H](CO)[C@@H](O)[C@H](O)[C@H]2O)c2cc(CO)cc(O)c21
discrete-label: 0.0
//
compound: C=CC(=O)N1CCc2ccc(-n3c(=O)ccc4cnc5ccc(-c6cnn(C)c6)cc5c43)cc21
discrete-label: 1.0
//
compound: CC(C=CC1=C(C)CCCC1(C)C)=CC=CC(C)=CC(=O)Nc1ccc(O)cc1
discrete-label: 1.0
//
compound: CN(C)c1ccc(C(=O)NCCCCCCC(=O)NO)cc1
discrete-label: 1.0
//
compound: COc1cc(O)c2c(c1)C1OC1C[C@H](O)[C@H](O)C(=O)C=CC[C@H](C)OC2=O (stereo partly specified)
discrete-label: 1.0
//
compound: O=C(C=CC#Cc1cccc(NS(=O)(=O)c2ccccc2)c1)NO
discrete-label: 1.0
//
compound: COc1cc([C@@H]2c3cc4c(cc3[C@@H](O[C@@H]3O[C@@H]5CO[C@@H](c6cccs6)O[C@@H]5[C@H](O)[C@@H]3O)[C@H]3COC(=O)[C@H]23)OCO4)cc(OC)c1O
discrete-label: 0.0
//
compound: O=C1NC(=O)[C@@H](c2cn3c4c(cccc24)CCC3)[C@H]1c1c[nH]c2ccccc12
discrete-label: 1.0
//
compound: CC(=O)O[C@@]12CO[C@H]1C[C@H](O)[C@@]1(C)C(=O)[C@H](O)C3=C(C)[C@@H](OC(=O)C(O)[C@@H](NC(=O)OC(C)(C)C)c4ccccc4)C[C@@](O)([C@@H](OC(=O)c4ccccc4)[C@@H]21)C3(C)C (stereo partly specified)
discrete-label: 1.0
//
compound: C[C@H]1[C@@H](OC(=O)CCC(=O)O)O[C@@H]2O[C@@]3(C)CC[C@@H]4[C@H](C)CC[C@@H]1[C@@]24OO3
discrete-label: 1.0

====

System: PA-1
Test: Primary qHTS to identify gynecologic anti-cancer compounds using libraries of approved drugs and bioactive compounds (AID 1345084); further: nearly all actives have a fitted effect of over 55% in size; further: potency means the concentration at half of the fitted maximal effect
Settings: Gynecologic cancer cell panel viability, ATPlite luminescence, 48 h; series mostly up to 57.5 µM
Text: National Center for Advancing Translational Sciences [NCATS] Assay Overview: Chemotherapeutic drug responses vary from cancer to cancer and from patient to patient. […] ATPlite is a luminescence based assay reliant on the conversion of a luciferase substrate to light in the presence of ATP. As a cytotoxic compound will suppress growth and decrease the number of cells, the concentration of ATP will decrease, and less light signal will be detected in the well. […]
Results filed as inconclusive are left out. Activity calls are given as the source filed them. Calls come from the whole dose curve; as a rule, active = well fitted cell-killing curve with a large enough effect; inconclusive = small, poorly fitted or top-dose-only effect, or effect the other way; inactive = flat fitted curve, though single readings scatter.

compound: CC1=C(C(=O)Nc2cc3cn[nH]c3cc2F)C(c2ccc(Cl)cc2F)N=C(c2ccnc(Cl)c2)N1 (centres undefined)
Potency: inactive
//
compound: c1ccc2c(Oc3nc(Nc4ccc(N5CCOCC5)cc4)c4ncn(C5CCCCC5)c4n3)cccc2c1
Potency: inactive
//
compound: Oc1cc(-c2nc(-c3ccccc3)[nH]c2-c2ccncc2)ccc1Cl
Potency: inactive
//
compound: CCN(CC)Cc1ccc2cc(COC(=O)Nc3ccc(C(=O)NO)cc3)ccc2c1
Potency: 1.78 µM (active)
//
compound: C=CC(=O)Nc1ccc2ncnc(Nc3ccc(OCc4cccc(F)c4)c(Cl)c3)c2c1
Potency: inactive
//
compound: Nc1ccc(C(=O)Nc2cccc(-c3nc(N4CCOCC4)c4oc5ncccc5c4n3)c2)cn1
Potency: 3.16 µM (active)
//
compound: c1cncc(CN2CCC(n3ncc4c(N5CCOCC5)nc(-c5ccc6[nH]ccc6c5)nc43)CC2)c1
Potency: 17.8 µM (active)
//
compound: C[N+]1(C)[C@@H]2C[C@@H](OC(=O)C(O)(c3cccs3)c3cccs3)C[C@H]1[C@@H]1O[C@@H]12
Potency: inactive
//
compound: CCn1c(=O)c2c(nc(C=Cc3ccc(OC)c(OC)c3)n2C)n(CC)c1=O
Potency: inactive
